test system: Pseudomonas aeruginosa; assay: Ratio of Kcat to Km for Pseudomonas aeruginosa PDC-2 by spectrophotometer
Reported log10 of kcat/Km is given for each of the following molecules.
Reported metric: log10 of kcat/Km (log10 of the value in M⁻¹ s⁻¹)

• CO/N=C(\C(=O)N[C@@H]1C(=O)N2C(C(=O)O)=C(COC(C)=O)CS[C@H]12)c1csc(N)n1 = 4.48
• CC(C)(O/N=C(\C(=O)N[C@@H]1C(=O)N2C(C(=O)[O-])=C(C[n+]3ccccc3)CS[C@H]12)c1csc(N)n1)C(=O)O = 2.70
• CO/N=C(\C(=O)N[C@@H]1C(=O)N2C(C(=O)[O-])=C(C[N+]3(C)CCCC3)CS[C@H]12)c1csc(N)n1 = 3.30
• C[C@@H](O)[C@H]1C(=O)N2C(C(=O)O)=C(SCCNC=N)C[C@H]12 = 3.70
• CC1(C)S[C@@H]2[C@H](NC(=O)Cc3ccccc3)C(=O)N2[C@H]1C(=O)O = 6.08
• CCN1CCN(C(=O)N[C@@H](C(=O)N[C@@H]2C(=O)N3[C@@H]2SC(C)(C)[C@@H]3C(=O)O)c2ccccc2)C(=O)C1=O = 5.13

* * *

system: Pseudomonas aeruginosa; experiment: Ratio of Kcat to Km for Pseudomonas aeruginosa PDC-3 by spectrophotometer
Recorded kcat/Km by entry
Reported metric: kcat/Km (M⁻¹ s⁻¹)

• CCN1CCN(C(=O)N[C@@H](C(=O)N[C@@H]2C(=O)N3[C@@H]2SC(C)(C)[C@@H]3C(=O)O)c2ccccc2)C(=O)C1=O = 125000
• CO/N=C(\C(=O)N[C@@H]1C(=O)N2C(C(=O)O)=C(COC(C)=O)CS[C@H]12)c1csc(N)n1 = 20000
• CC1(C)S[C@@H]2[C@H](NC(=O)Cc3ccccc3)C(=O)N2[C@H]1C(=O)O = 1.2e+06
• CC(C)(O/N=C(\C(=O)N[C@@H]1C(=O)N2C(C(=O)[O-])=C(C[n+]3ccccc3)CS[C@H]12)c1csc(N)n1)C(=O)O = 600
• C[C@@H](O)[C@H]1C(=O)N2C(C(=O)O)=C(SCCNC=N)C[C@H]12 = 5000
• CO/N=C(\C(=O)N[C@@H]1C(=O)N2C(C(=O)[O-])=C(C[N+]3(C)CCCC3)CS[C@H]12)c1csc(N)n1 = 1500

* * *

Measured log10 of kcat of individual entries
tested on: Pseudomonas aeruginosa; experiment: Activity at Pseudomonas aeruginosa PDC-2 by spectrophotometer
Reported metric: log10 of kcat (log10 of the value in s⁻¹)

• CO/N=C(\C(=O)N[C@@H]1C(=O)N2C(C(=O)[O-])=C(C[N+]3(C)CCCC3)CS[C@H]12)c1csc(N)n1 = 0.30
• C[C@@H](O)[C@H]1C(=O)N2C(C(=O)O)=C(SCCNC=N)C[C@H]12 = -0.70
• CCN1CCN(C(=O)N[C@@H](C(=O)N[C@@H]2C(=O)N3[C@@H]2SC(C)(C)[C@@H]3C(=O)O)c2ccccc2)C(=O)C1=O = 0.74
• CO/N=C(\C(=O)N[C@@H]1C(=O)N2C(C(=O)O)=C(COC(C)=O)CS[C@H]12)c1csc(N)n1 = 0.70
• CC1(C)S[C@@H]2[C@H](NC(=O)Cc3ccccc3)C(=O)N2[C@H]1C(=O)O = 1.54
• CC(C)(O/N=C(\C(=O)N[C@@H]1C(=O)N2C(C(=O)[O-])=C(C[n+]3ccccc3)CS[C@H]12)c1csc(N)n1)C(=O)O = -2.00

* * *

Entries and their Km values follow.
system: Pseudomonas aeruginosa; assay: Activity at Pseudomonas aeruginosa PDC-3 by spectrophotometer
Reported metric: Km (µM)

- CC(C)(O/N=C(\C(=O)N[C@@H]1C(=O)N2C(C(=O)[O-])=C(C[n+]3ccccc3)CS[C@H]12)c1csc(N)n1)C(=O)O: 35
- CO/N=C(\C(=O)N[C@@H]1C(=O)N2C(C(=O)[O-])=C(C[N+]3(C)CCCC3)CS[C@H]12)c1csc(N)n1: 1300
- CCN1CCN(C(=O)N[C@@H](C(=O)N[C@@H]2C(=O)N3[C@@H]2SC(C)(C)[C@@H]3C(=O)O)c2ccccc2)C(=O)C1=O: 40
- CO/N=C(\C(=O)N[C@@H]1C(=O)N2C(C(=O)O)=C(COC(C)=O)CS[C@H]12)c1csc(N)n1: 8
- C[C@@H](O)[C@H]1C(=O)N2C(C(=O)O)=C(SCCNC=N)C[C@H]12: 20
- CC1(C)S[C@@H]2[C@H](NC(=O)Cc3ccccc3)C(=O)N2[C@H]1C(=O)O: 30

* * *

As shown below, each of these compounds has a reported Km value.
system: Pseudomonas aeruginosa; assay: Activity at Pseudomonas aeruginosa PDC-2 by spectrophotometer
Reported metric: Km (µM)

- CO/N=C(\C(=O)N[C@@H]1C(=O)N2C(C(=O)O)=C(COC(C)=O)CS[C@H]12)c1csc(N)n1: 5
- CC1(C)S[C@@H]2[C@H](NC(=O)Cc3ccccc3)C(=O)N2[C@H]1C(=O)O: 30
- CC(C)(O/N=C(\C(=O)N[C@@H]1C(=O)N2C(C(=O)[O-])=C(C[n+]3ccccc3)CS[C@H]12)c1csc(N)n1)C(=O)O: 20
- CO/N=C(\C(=O)N[C@@H]1C(=O)N2C(C(=O)[O-])=C(C[N+]3(C)CCCC3)CS[C@H]12)c1csc(N)n1: 850
- CCN1CCN(C(=O)N[C@@H](C(=O)N[C@@H]2C(=O)N3[C@@H]2SC(C)(C)[C@@H]3C(=O)O)c2ccccc2)C(=O)C1=O: 40
- C[C@@H](O)[C@H]1C(=O)N2C(C(=O)O)=C(SCCNC=N)C[C@H]12: 35
